Test system: Calu-3
EXPERIMENTAL DETAILS: cell viability relative to DMSO; higher = less toxic
ASSAY SETUP: 72 h; 1 nM
For each of the compounds below, state its cell viability.
API: value field is a number in %; no unit string.

Challenge: Notebook: pull reported cell viability for Calu-3, entry CCOc1cncc(/C=C/CCNC)c1 [TC2559]
Response given: 87.6

Challenge: Moving on to O=C(Nc1ccccc1-c1cn2c(CN3CCNCC3)csc2n1)c1cnc2ccccc2n1 [SRT1720]
Response given: 102

Challenge: Another compound: CC(C)(C)c1ccc(C(=O)Nc2cn3cc(-n4ccnc4)ccc3n2)cc1 [TC-ASK-10]
Response given: 97.9

Challenge: Would you mind doing "CN1CCN(c2cccc(Nc3nc4c(-c5ccc(S(C)(=O)=O)cc5)cccn4n3)c2)CC1" as well?
Response given: 97.9

Challenge: Same thing, different compound: NC(=O)CN1CC[C@@H](NC(=O)[C@@H]2CCCN2)C1=O [PAOPA]
Response given: 98.1

Challenge: Similarly, Nc1nc2ccc(OC(F)(F)F)cc2s1 [riluzole] ?
Response given: 96

Challenge: N#Cc1ccc2[nH]cc(CCCCN3CCN(c4ccc5oc(C(N)=O)cc5c4)CC3)c2c1 [vilazodone] ?
Response given: 87.5

Challenge: And the next one, C[N+](C)(C)CC(=O)O [betaine] ?
Response given: 101

Challenge: Would you mind doing O=C1NC(=O)[C@@]2(CCOc3ccc(F)cc32)N1 [sorbinil] as well?
Response given: 103

Challenge: Continue with N=C(N)NC(=O)Cc1c(Cl)cccc1Cl [guanfacine]
Response given: 92.7

* * *

I'd appreciate it if you could supply cell viability values for the items below.
Test system: HepG2
EXPERIMENTAL DETAILS: cell viability relative to DMSO; higher = less toxic
ASSAY SETUP: 72 h; 10 nM
All answers are understood in %, so give the number only.

Challenge: Would you mind telling me what cell viability value was observed for "COc1ccc([C@@H]2CC(=O)c3c(O)cc(O[C@@H]4O[C@H](CO)[C@@H](O)[C@H](O)[C@H]4O[C@@H]4O[C@@H](C)[C@H](O)[C@@H](O)[C@H]4O)cc3O2)cc1O" ?
Response given: 97.8

Challenge: Can you handle CCCCN1CCCC1CNC(=O)c1cc(C#N)c2ccccc2c1OC (stereo not drawn) [nafadotride] next?
Response given: 103

Challenge: Now the same for CCOC(=O)c1cncn1[C@H](C)c1ccccc1 [etomidate]
Response given: 86.3

* * *

Give cell viability for every item shown.
Test system: Vero E6
EXPERIMENTAL DETAILS: cell viability relative to DMSO; higher = less toxic
ASSAY SETUP: 72 h; 10000 nM
Output spec: scalar in %, unitless text.

Challenge: Enter reported cell viability observed with Vero E6 for "Cc1c(Cl)c(C)[n+]([O-])c(Cl)c1-c1noc(-c2cc(O)c(O)c([N+](=O)[O-])c2)n1"
Response given: 95.8

Challenge: Now the compound "C[C@]12CC[C@H]3[C@@H](CC[C@]4(O)C[C@@H](O)CC[C@]34C=O)[C@@]1(O)CC[C@@H]2C1=CC(=O)OC1"
Response given: 0.9

Challenge: Same thing, different compound: "N[C@@H](CS(=O)O)C(=O)O"
Response given: 102

Challenge: Same lookup for "C[C@@H]1CN(CC(=O)Nc2ccc3c(c2)Cc2cccc(-c4cc(=O)cc(N5CCOCC5)o4)c2S3)C[C@H](C)O1" , please.
Response given: 80.9

Data origin: the supplement of paper PMC13380429
